Origin of the recorded values: ChEMBL document CHEMBL4033734

- Test system: HepG2
- experiment description: Cytotoxic activity against human HepG2 cells incubated for 48 hrs by MTT assay
- Format: functional, cell-based
- assay setup: HepG2, 48 h
Rule: measured IC50 below 500 nM gets met; anything equal to or greater than 500 nM gets not met.

entry smiles	qualitative label
CC1=C(O)C(=O)C=C2C1=CC=C1[C@@]2(C)CC[C@@]2(C)[C@@H]3C[C@](C)(C(=O)OCC(C)C)CC[C@]3(C)CC[C@]12C	met
CC1=C(O)C(=O)C=C2C1=CC=C1[C@@]2(C)CC[C@@]2(C)[C@@H]3C[C@](C)(C(=O)OCc4ccc(I)cc4)CC[C@]3(C)CC[C@]12C	not met
CCCCOC(=O)[C@]1(C)CC[C@]2(C)CC[C@]3(C)C4=CC=C5C(=CC(=O)C(O)=C5C)[C@]4(C)CC[C@@]3(C)[C@@H]2C1	not met
CC1=C(O)C(=O)C=C2C1=CC=C1[C@@]2(C)CC[C@@]2(C)[C@@H]3C[C@](C)(C(=O)OC(C)C)CC[C@]3(C)CC[C@]12C	met
CC1=C(OC(=O)N2CCN(C)CC2)C(=O)C=C2C1=CC=C1[C@@]2(C)CC[C@@]2(C)[C@@H]3C[C@](C)(C(=O)OCc4ccccc4)CC[C@]3(C)CC[C@]12C	not met
CC1=C(O)C(=O)C=C2C1=CC=C1[C@@]2(C)CC[C@@]2(C)[C@@H]3C[C@](C)(C(=O)OCc4cccc(Cl)c4)CC[C@]3(C)CC[C@]12C	not met
CC1=C(O)C(=O)C=C2C1=CC=C1[C@@]2(C)CC[C@@]2(C)[C@@H]3C[C@](C)(C(=O)OCc4ccc([N+](=O)[O-])cc4)CC[C@]3(C)CC[C@]12C	met
CC1=C(O)C(=O)C=C2C1=CC=C1[C@@]2(C)CC[C@@]2(C)[C@@H]3C[C@](C)(C(=O)OCc4ccccc4)CC[C@]3(C)CC[C@]12C	not met
CC1=C(OC(=O)N2CCOCC2)C(=O)C=C2C1=CC=C1[C@@]2(C)CC[C@@]2(C)[C@@H]3C[C@](C)(C(=O)OCc4ccccc4)CC[C@]3(C)CC[C@]12C	not met
CCN1CCN(C(=O)OC2=C(C)C3=CC=C4[C@@](C)(CC[C@@]5(C)[C@@H]6C[C@](C)(C(=O)OCc7ccccc7)CC[C@]6(C)CC[C@]45C)C3=CC2=O)CC1	not met
CCCOC(=O)[C@]1(C)CC[C@]2(C)CC[C@]3(C)C4=CC=C5C(=CC(=O)C(O)=C5C)[C@]4(C)CC[C@@]3(C)[C@@H]2C1	met

----------
- Tested on: Bel-7402
- experiment description: Cytotoxic activity against human Bel7402 cells incubated for 48 hrs by MTT assay
- Assay type: functional, cell-based
- assay setup: Bel-7402, 48 h
Decision: IC50 beneath 600 nM gives Yes; IC50 meeting or exceeding 600 nM gives No.

entry smiles	qualitative label
CCOC(=O)COC(=O)[C@]1(C)CC[C@]2(C)CC[C@]3(C)C4=CC=C5C(=CC(=O)C(O)=C5C)[C@]4(C)CC[C@@]3(C)[C@@H]2C1	Yes
CC1=C(OC(=O)N2CCN(Cc3ccccc3)CC2)C(=O)C=C2C1=CC=C1[C@@]2(C)CC[C@@]2(C)[C@@H]3C[C@](C)(C(=O)OCc4ccccc4)CC[C@]3(C)CC[C@]12C	No
CC1=C(OC(=O)N(C)c2ccccc2)C(=O)C=C2C1=CC=C1[C@@]2(C)CC[C@@]2(C)[C@@H]3C[C@](C)(C(=O)OCc4ccccc4)CC[C@]3(C)CC[C@]12C	No
CC1=C(OC(=O)N2CCCCC2)C(=O)C=C2C1=CC=C1[C@@]2(C)CC[C@@]2(C)[C@@H]3C[C@](C)(C(=O)OCc4ccccc4)CC[C@]3(C)CC[C@]12C	No
CC1=C(OC(=O)N2CCOCC2)C(=O)C=C2C1=CC=C1[C@@]2(C)CC[C@@]2(C)[C@@H]3C[C@](C)(C(=O)OCc4ccccc4)CC[C@]3(C)CC[C@]12C	No

----------
- Tested on: HepG2
- experiment description: Cytotoxic activity against human HepG2 cells incubated for 48 hrs by MTT assay
- Format: functional, cell-based
- assay setup: HepG2, 48 h
measurement type: log10 of IC50 (log10 of the value in nM)

compound	measurement type	observed
CCCCCCOC(=O)[C@]1(C)CC[C@]2(C)CC[C@]3(C)C4=CC=C5C(=CC(=O)C(O)=C5C)[C@]4(C)CC[C@@]3(C)[C@@H]2C1	log10 of IC50	3.24
CCCCCOC(=O)[C@]1(C)CC[C@]2(C)CC[C@]3(C)C4=CC=C5C(=CC(=O)C(O)=C5C)[C@]4(C)CC[C@@]3(C)[C@@H]2C1	log10 of IC50	2.64
CCC(C)OC(=O)[C@]1(C)CC[C@]2(C)CC[C@]3(C)C4=CC=C5C(=CC(=O)C(O)=C5C)[C@]4(C)CC[C@@]3(C)[C@@H]2C1 (some centres undefined)	log10 of IC50	2.59
CC1=C(O)C(=O)C=C2C1=CC=C1[C@@]2(C)CC[C@@]2(C)[C@@H]3C[C@](C)(C(=O)O)CC[C@]3(C)CC[C@]12C [CELASTROL]	log10 of IC50	2.76
COC(=O)[C@]1(C)CC[C@]2(C)CC[C@]3(C)C4=CC=C5C(=CC(=O)C(O)=C5C)[C@]4(C)CC[C@@]3(C)[C@@H]2C1 [PRISTIMERIN]	log10 of IC50	2.89
CC(=O)N1CCN(C(=O)OC2=C(C)C3=CC=C4[C@@](C)(CC[C@@]5(C)[C@@H]6C[C@](C)(C(=O)OCc7ccccc7)CC[C@]6(C)CC[C@]45C)C3=CC2=O)CC1	log10 of IC50	3.76
C=CCOC(=O)[C@]1(C)CC[C@]2(C)CC[C@]3(C)C4=CC=C5C(=CC(=O)C(O)=C5C)[C@]4(C)CC[C@@]3(C)[C@@H]2C1	log10 of IC50	2.49
CC1=C(OC(=O)N(C)c2ccccc2)C(=O)C=C2C1=CC=C1[C@@]2(C)CC[C@@]2(C)[C@@H]3C[C@](C)(C(=O)OCc4ccccc4)CC[C@]3(C)CC[C@]12C	log10 of IC50	3.63
CC1=C(O)C(=O)C=C2C1=CC=C1[C@@]2(C)CC[C@@]2(C)[C@@H]3C[C@](C)(C(=O)OCc4ccc(C)cc4)CC[C@]3(C)CC[C@]12C	log10 of IC50	2.63

----------
- Test system: Bel-7402
- experiment description: Cytotoxic activity against human Bel7402 cells incubated for 48 hrs by MTT assay
- Type: functional, cell-based
- assay setup: Bel-7402, 48 h

compound	target under test	IC50, nM
CCOC(=O)[C@]1(C)CC[C@]2(C)CC[C@]3(C)C4=CC=C5C(=CC(=O)C(O)=C5C)[C@]4(C)CC[C@@]3(C)[C@@H]2C1	Bel-7402	920
CC1=C(O)C(=O)C=C2C1=CC=C1[C@@]2(C)CC[C@@]2(C)[C@@H]3C[C@](C)(C(=O)OCc4ccc(I)cc4)CC[C@]3(C)CC[C@]12C	Bel-7402	860
COC(=O)[C@]1(C)CC[C@]2(C)CC[C@]3(C)C4=CC=C5C(=CC(=O)C(O)=C5C)[C@]4(C)CC[C@@]3(C)[C@@H]2C1 [PRISTIMERIN]	Bel-7402	1160
